- measurement_target: TXK (Homo sapiens)
- Sequence (P42681 1-527): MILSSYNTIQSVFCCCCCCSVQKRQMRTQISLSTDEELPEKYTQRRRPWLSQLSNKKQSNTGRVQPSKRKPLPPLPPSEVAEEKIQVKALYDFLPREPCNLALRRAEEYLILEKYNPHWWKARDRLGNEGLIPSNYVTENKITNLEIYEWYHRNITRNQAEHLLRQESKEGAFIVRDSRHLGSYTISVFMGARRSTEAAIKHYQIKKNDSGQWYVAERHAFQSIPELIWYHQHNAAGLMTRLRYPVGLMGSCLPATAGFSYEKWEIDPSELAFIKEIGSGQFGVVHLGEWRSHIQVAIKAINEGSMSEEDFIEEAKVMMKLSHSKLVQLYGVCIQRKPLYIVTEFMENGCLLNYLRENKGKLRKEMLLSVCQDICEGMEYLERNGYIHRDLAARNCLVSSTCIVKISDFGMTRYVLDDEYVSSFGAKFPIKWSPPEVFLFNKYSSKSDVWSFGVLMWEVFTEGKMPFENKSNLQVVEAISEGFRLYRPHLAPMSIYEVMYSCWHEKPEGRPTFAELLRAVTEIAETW
- assay_remarks: Other kinase MSA: TXK
- Assay type: biochemical
pIC50: −log10 of the molar value.
measurement_type: pIC50

- compound: "C=CC(=O)N1CCN([C@@H]2CCNc3c2nn(-c2ccc(Oc4ccccc4)cc2)c3C(N)=O)CC1 [Example 6]"
  recorded_number: 6.65
